The reported numbers originate from patent US20240092922A1.

Listing of entries alongside the reported koff.
Measured On: T1, Histidine-tagged human 4-1BB protein (h4-1BB-His) (human, UniProt Q07011 24-186)
T1 construct: not shown: histidine tag
Assay Info: SPR (Biacore T200), antibody on Protein A chip, h4-1BB-His injected;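 further: dissociation phase followed for 300 s, Kd derived as koff divided by kon from the kinetic fit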

Binder: 1C4-H1K4-IgG4 (antibody, V domains shown, humanized) VH: QVQMVQSGAEVKKPGASVKLSCKASGFTFSSSYINWLRQAPGQRLEWMGWIFAGTGGTYYNQKFTGRVTITRDTSASTAYMELSSLRSEDTAIYYCARHSPRATLFDFWGQGTTLTVSS VL: EIVLTQSPATLSASPGERVTMSCRASSSVNHMHWYQQRPGFSPRAWIYATSNLASGIPARFSGSGSGTSYSLTISSLEPEDFATYYCQQWSSNPYTFGGGTKLEIK
koff: 0.000614 s⁻¹
--
Binder: 45-4B9-mHvKv-IgG2 (antibody, V domains shown) VH: EVQLQQSGPELVKPGASVKMSCKASGYTFTTYVMYWVKQRPGQGLEWIGYINPYNDDIRYNEKFKGKATLTSDRSSSTAYMELSSLTSEDSAVYLCARQGGDYWGQGTILTVSS VL: DVQITQSPSYLAASPGETITVNCRASKNINKYLAWYQEKPGKTNKLLIYSGSTLQSGIPSRFSGSGSGTDFTLTISSLEPEDFAVYHCQQYNEYPLTFGAGTKLEMK
koff: 0.00298 s⁻¹
--
Binder: 1C4-H4K4-IgG4 (antibody, V domains shown, humanized) VH: QGQMVQSGAEVKKPGASVKLSCKTSGFTFSSSYINWLRQAPGQSLEWIAWIFAGTGGTYYNQKFTGRAQLTVDTSASTAYMELSSLRSEDTAIYYCARHSPRATLFDFWGQGTTLTVSS VL: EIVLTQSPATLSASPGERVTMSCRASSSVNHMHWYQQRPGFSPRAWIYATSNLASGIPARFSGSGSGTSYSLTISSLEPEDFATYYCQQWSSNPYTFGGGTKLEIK
koff: 0.00056 s⁻¹
